# IC50 values compiled below
# System: MYB
# ASSAY REMARKS: HiBiT protein abundance assay, MYB HiBiT K562 cell line
# Type: cell-based, human
# CONDITION LABEL: HiBiT lytic detection, modified K562 cells, 24 hours, top dose 10 μM; read-out: Effect on protein abundance, MYB (IC50)

Example results:
CNC1CCN(c2ccc3cc(-c4cc(C)c5nc(C)cn5n4)ccn3c2=O)C1 (stereo not shown)    100 to 1000 nM
Cc1cn2nc(-n3cnc4ccc(N5CCN(C)CC5)cc4c3=O)cc(C)c2n1    1000 to 10000 nM
Cc1cn2nc(-c3cnc4c(=O)n(C5CCNCC5)ncc4c3)cc(C)c2n1    1000 to 10000 nM

Read the next record carefully.
IN: Give its IC50 value. Item: Cc1cn2nc(-n3cnc4ccc(N5CCNCC5)cc4c3=O)cc(C)c2n1
OUT: > 10000 nM
